- Test system: MDA-MB-231
- Assay procedure: Antiproliferative activity against human MDA-MB-231 cells assessed as inhibition of cell growth incubated for 72 hrs by MTS assay
- Type: functional, cell-based
- Condition set: MDA-MB-231, 72 h
pIC50: −log10 of the molar value.
Recorded pIC50 for the following molecules

{"Molecule": "COc1cccc(-c2cc(C(=O)NCCc3ccc(OC4CCC(C(=O)Oc5ccccc5)CC4)cc3-c3cccc(F)c3)ccc2OC)c1 (stereo not drawn)", "pIC50": "< 4.30"}
{"Molecule": "COc1cccc(-c2cc(C(=O)NCCc3ccc(OC4CCC(Cc5ccccc5)CC4)cc3-c3cccc(F)c3)ccc2OC)c1 (stereo not drawn)", "pIC50": "< 4.30"}

Consider now this further molecule.
The molecule COc1cccc(-c2cc(C(=O)NCCc3ccc(OCCCB(O)O)cc3-c3cccc(F)c3)ccc2OC)c1 on MDA-MB-231: pIC50 was 4.44

###

- Tested on: MDA-MB-231
- Assay procedure: Antiproliferative activity against human MDA-MB-231 cells assessed as inhibition of cell growth incubated for 72 hrs by MTS assay
- Format: functional, cell-based
- Condition set: MDA-MB-231, 72 h
Recorded IC50 for the following molecules

Some molecules with known IC50 results, for comparison:
{"Molecule": "CC(C)=CCc1cc(C(=O)NCCc2ccc(OC3CCC(CCc4ccccc4)CC3)cc2-c2cccc(F)c2)ccc1O (centres undefined)", "IC50": "> 50 µM"}
{"Molecule": "COc1cccc(-c2cc(C(=O)NCCc3ccc(OC4CCC(CNc5ccccc5)CC4)cc3-c3cccc(F)c3)ccc2OC)c1 (centres undefined)", "IC50": "> 50 µM"}
{"Molecule": "COc1cccc(-c2cc(C(=O)NCCc3ccc(OCCCB4OC(C)(C)C(C)(C)O4)cc3-c3cccc(F)c3)ccc2OC)c1", "IC50": "35.1 µM"}

Consider now this further molecule.
IC50 reading for COc1cccc(-c2cc(C(=O)NCCc3ccc(OC4CCN(Cc5ccccc5)CC4)cc3-c3cccc(F)c3)ccc2OC)c1 : > 50 µM

###

- System: PC-3
- Assay procedure: Antiproliferative activity against human PC-3 cells assessed as inhibition of cell growth incubated for 72 hrs by MTS assay
- Assay type: functional, cell-based
- Condition set: PC-3, 72 h
Measured quantity: IC50

{"Compound": "COc1cccc(-c2cc(C(=O)NCCc3ccc(OC4CCC(C(F)(F)Oc5ccccc5)CC4)cc3-c3cccc(F)c3)ccc2OC)c1 (stereo unspecified)", "IC50": "> 50 µM"}

IC50 reading for COc1cccc(-c2cc(C(=O)NCCc3ccc(OC4CCC(C(=O)Oc5ccccc5)CC4)cc3-c3cccc(F)c3)ccc2OC)c1 (stereo unspecified) : > 50 µM

IC50 reading for COc1cccc(-c2cc(C(=O)NCCc3ccc(OC4CCN(Cc5ccccc5)CC4)cc3-c3cccc(F)c3)ccc2OC)c1 : > 50 µM

IC50 reading for COc1cccc(-c2cc(C(=O)NCCc3ccc(OC4CCN(C(C)C)CC4)cc3-c3cccc(F)c3)ccc2OC)c1 : 13.6 µM

IC50 reading for COc1cccc(-c2cc(C(=O)NCCc3ccc(OCCCB4OC(C)(C)C(C)(C)O4)cc3-c3cccc(F)c3)ccc2OC)c1 : 8.07 µM

IC50 reading for COc1cccc(-c2cc(C(=O)NCCc3ccc(OCCCB(O)O)cc3-c3cccc(F)c3)ccc2OC)c1 : 13.3 µM

IC50 reading for COc1cccc(-c2cc(C(=O)NCCc3ccc(OC4CCC(SCc5ccccc5)CC4)cc3-c3cccc(F)c3)ccc2OC)c1 (stereo unspecified) : > 50 µM

IC50 reading for COc1cccc(-c2cc(C(=O)NCCc3ccc(OC4CCC(CSc5ccccc5)CC4)cc3-c3cccc(F)c3)ccc2OC)c1 (stereo unspecified) : > 50 µM

IC50 reading for COc1cccc(-c2cc(C(=O)NCCc3ccc(OC4CCC(CCc5ccccc5)CC4)cc3-c3cccc(F)c3)ccc2OC)c1 (stereo unspecified) : > 50 µM

IC50 reading for CCN1CCC(Oc2ccc(CCNC(=O)c3ccc(OC)c(-c4cccc(OC)c4)c3)c(-c3cccc(F)c3)c2)CC1 : 13.5 µM

IC50 reading for CC(C)=CCc1cc(C(=O)NCCc2ccc(OC3CCC(CCc4ccccc4)CC3)cc2-c2cccc(F)c2)ccc1O (stereo unspecified) : > 50 µM

IC50 reading for COc1cccc(-c2cc(C(=O)NCCc3ccc(OC4CCOCC4)cc3-c3cccc(F)c3)ccc2OC)c1 : > 50 µM

IC50 reading for CNC(=O)C1CCC(Oc2ccc(CCNC(=O)c3ccc(OC)c(-c4cccc(OC)c4)c3)c(-c3cccc(F)c3)c2)CC1 (stereo unspecified) : > 50 µM

IC50 reading for COc1cccc(-c2cc(C(=O)NCCc3ccc(OC4CCCCC4)cc3-c3cccc(F)c3)ccc2OC)c1 : > 50 µM

IC50 reading for CC(C)=CCc1cc(C(=O)NCCc2ccc(OC3CCC(Cc4ccccc4)CC3)cc2-c2cccc(F)c2)ccc1O (stereo unspecified) : > 50 µM

IC50 reading for COc1cccc(-c2cc(C(=O)NCCc3ccc(OC4CCC(OCc5ccccc5)CC4)cc3-c3cccc(F)c3)ccc2OC)c1 (stereo unspecified) : > 50 µM

###

- Tested on: MDA-MB-231
- Assay procedure: Antiproliferative activity against human MDA-MB-231 cells assessed as inhibition of cell growth incubated for 72 hrs by MTS assay
- Assay type: functional, cell-based
- Condition set: MDA-MB-231, 72 h
pIC50: −log10 of the molar value.
Recorded pIC50 for the following compounds

Some compounds with known pIC50 results, for comparison:
{"Compound": "COc1cccc(-c2cc(C(=O)NCCc3ccc(OC4CCC(SCc5ccccc5)CC4)cc3-c3cccc(F)c3)ccc2OC)c1 (stereo unspecified)", "Observed result": "< 4.30"}
{"Compound": "COc1cccc(-c2cc(C(=O)NCCc3ccc(OC4CCCCC4)cc3-c3cccc(F)c3)ccc2OC)c1", "Observed result": "< 4.30"}
{"Compound": "CCCC1CCC(Oc2ccc(CCNC(=O)c3ccc(OC)c(-c4cccc(OC)c4)c3)c(-c3cccc(F)c3)c2)CC1 (stereo unspecified)", "Observed result": "< 4.30"}
{"Compound": "COc1cccc(-c2cc(C(=O)NCCc3ccc(OC4CCC(C(F)(F)Oc5ccccc5)CC4)cc3-c3cccc(F)c3)ccc2OC)c1 (stereo unspecified)", "Observed result": "< 4.30"}
{"Compound": "CCCN1CCC(Oc2ccc(CCNC(=O)c3ccc(OC)c(-c4cccc(OC)c4)c3)c(-c3cccc(F)c3)c2)CC1", "Observed result": 5.20}
{"Compound": "COc1cccc(-c2cc(C(=O)NCCc3ccc(OC4CCC(COc5ccccc5)CC4)cc3-c3cccc(F)c3)ccc2OC)c1 (stereo unspecified)", "Observed result": "< 4.30"}
{"Compound": "CNC(=O)C1CCC(Oc2ccc(CCNC(=O)c3ccc(OC)c(-c4cccc(OC)c4)c3)c(-c3cccc(F)c3)c2)CC1 (stereo unspecified)", "Observed result": "< 4.30"}
{"Compound": "COc1cccc(-c2cc(C(=O)NCCc3ccc(OC4CCN(C)CC4)cc3-c3cccc(F)c3)ccc2OC)c1", "Observed result": 5.31}
{"Compound": "COc1cccc(-c2cc(C(=O)NCCc3ccc(OC4CCN(C(C)C)CC4)cc3-c3cccc(F)c3)ccc2OC)c1", "Observed result": 5.03}
{"Compound": "COc1cccc(-c2cc(C(=O)NCCc3ccc(OC4CCNCC4)cc3-c3cccc(F)c3)ccc2OC)c1", "Observed result": 5.48}

pIC50 reading for COc1cccc(-c2cc(C(=O)NCCc3ccc(OC4CCC(CCc5ccccc5)CC4)cc3-c3cccc(F)c3)ccc2OC)c1 (stereo unspecified) : < 4.30

Every entry's value here was drawn from ChEMBL document CHEMBL5344476.
